# Assayed Target: T1, human GPRC5D (human, UniProt Q9NZD1 1-345)
# T1 construct: whole, on cells; also called hGPRC5D; G-protein coupled receptor family C group 5 member D
# T1 sequence (Q9NZD1 whole entry): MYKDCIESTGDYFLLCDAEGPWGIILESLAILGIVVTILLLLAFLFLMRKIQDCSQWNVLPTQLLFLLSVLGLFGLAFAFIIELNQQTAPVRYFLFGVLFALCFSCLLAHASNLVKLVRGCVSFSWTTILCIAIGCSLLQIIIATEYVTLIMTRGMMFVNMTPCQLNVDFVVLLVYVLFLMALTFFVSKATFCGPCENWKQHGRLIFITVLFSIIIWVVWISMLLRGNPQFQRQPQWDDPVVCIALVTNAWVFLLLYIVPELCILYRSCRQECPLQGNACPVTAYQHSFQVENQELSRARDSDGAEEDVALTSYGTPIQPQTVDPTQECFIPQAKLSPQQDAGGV
# Protocol Description: FACS, CHOS-hGPRC5D cells
Endpoint Name: EC50

EC50 reading for ch26E2H6 (antibody, V domains shown) VH: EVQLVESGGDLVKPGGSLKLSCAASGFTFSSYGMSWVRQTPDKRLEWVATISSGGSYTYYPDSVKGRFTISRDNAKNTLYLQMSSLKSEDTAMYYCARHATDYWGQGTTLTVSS VL: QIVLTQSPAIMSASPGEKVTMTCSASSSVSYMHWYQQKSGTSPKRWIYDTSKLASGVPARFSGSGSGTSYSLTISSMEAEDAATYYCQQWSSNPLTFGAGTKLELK : 3.02 nM

Cited source: patent US20250368734A1
